System: Wild type
assay_notes: S. aureus survival, RN4220 and DeltatarO strains – OD600, teichoic acid synthesis inhibitors, primary screen (AID 463173)
test_conditions: S. aureus RN4220 wild type/DeltatarO growth, OD600, 18 h, screened at 18.75 µg/mL (by protocol)
About 1,700 (3.3%) of roughly 52,000 compounds were called active. No stated cut-off is given here; in the data, active means survival mostly below about 52% (no sharp cut-off); inactive means mostly above about 56%. What follows is part of a selection rich in actives, with near analogues and random picks from the rest.
Possible outcomes: label 1 for active, label 0 for inactive

> print(dat)
                                    compound  classification
 1  COc1ccccc1NC(=O)c1cn(-c2ccccc2)nc1-c1ccccc1         label 0
 2  O=C(CN1C(=O)COc2ccc(S(=O)(=O)N3CCCCCC3)cc21)NCCc1ccccc1         label 0
 3  CCCc1cc(=O)oc2cc(C)c3c(-c4cccc(OC)c4)coc3c12         label 0
 4  COc1ccc(-c2cc(C(F)(F)F)nc(SCCC(=O)Nc3cccc(O)c3)n2)cc1         label 0
 5  CCOC(=O)C1(CC)C(=O)OC(C(=O)NC2CCCCC2)C1C (stereo unspecified)         label 0
 6  COc1ccc(NC(=O)c2cn(-c3ccccc3)nc2-c2ccc(C)cc2)cc1         label 0
 7  Fc1ccccc1C(NCCc1ccc(Cl)cc1)c1nnc(-c2ccccc2)o1 (stereo unspecified)         label 1
 8  Cc1cc(NC(c2nnc(-c3ccccc3)o2)c2ccccc2F)ccc1Br (stereo unspecified)         label 1
 9  COc1ccc(NC(c2nnc(-c3ccccc3)o2)c2ccccc2F)cc1Cl (stereo unspecified)         label 0
10  Cc1cc(C)cc(NC(c2cccc(Cl)c2)c2nnc(-c3ccccc3)o2)c1 (stereo unspecified)         label 0
11  O=C(CSc1n[nH]c(-c2ccccc2Cl)n1)N1CCN(c2ccccc2F)CC1         label 0
12  Clc1ccc(CCNC(c2nnc(-c3ccccc3)o2)c2ccccc2Cl)cc1 (stereo unspecified)         label 1
13  Cc1ccc(Cn2cc(S(=O)(=O)c3cccc(Cl)c3)c(=O)c3cc(F)c(N4CCOCC4)cc32)cc1         label 0
14  COc1nc(C)c(/C=C/C(=O)N(C(=O)NC2CCCCC2)C2CCCCC2)c(OC)n1         label 0
15  CCOC(=O)C1CCN(c2cc(C)nc3c(-c4ccccc4OC)c(C)nn23)CC1         label 0
16  Cc1ccc(NC(c2nnc(-c3ccccc3)o2)c2ccccc2F)c(Cl)c1 (stereo unspecified)         label 0
17  CCCc1cc(=O)oc2cc(C)c3c(-c4ccccc4)c(C)oc3c12         label 1
18  Cc1cc(C)cc(NC(c2nnc(-c3cccc(F)c3)o2)c2ccc(F)cc2Cl)c1 (stereo unspecified)         label 0
19  CCCc1cc(=O)oc2cc(C)c3c(-c4ccccc4)coc3c12         label 0
20  COc1ccc(CNc2nc3c(-c4cccc(F)c4)nnn3c3ccccc23)cc1         label 0
21  COC(=O)c1ccc(NC(=O)Cc2coc3cc(C)ccc23)cc1         label 0

----------
Test system: Wild type
assay_notes: S. aureus survival, RN4220 and DeltatarO strains – OD600, teichoic acid synthesis inhibitors, primary screen (AID 463173)
test_conditions: S. aureus RN4220 wild type/DeltatarO growth, OD600, 18 h, hits give low values, screened at 18.75 µg/mL (by protocol)
Among all 52,000 compounds or so, about 1,700 (3.3%) were called active. Shown is part of a subset that was picked to be rich in actives.
Class membership depends on survival alone; the intervals are Low = under 60%, Mid = from 60% up to 80%, High = 80% and over

> print(dat)
                                    compound  classification
 1  CCC(Oc1ccccc1F)C(=O)N1CCC(c2nc3ccccc3s2)CC1 (stereo unspecified)             Low
 2        Cc1ccc2nc(NCc3ccccc3Cl)c3nnnn3c2c1            High
 3  Cc1ccc(N2CCN(c3nc4ccc(C)cc4n4nnnc34)CC2)c(C)c1             Mid
 4  Cc1ccc2nc(N3CCN(c4ccc(F)cc4)CC3)c3nnnn3c2c1             Low
 5   Cc1ccccc1OCC(=O)N1CCC(c2nc3ccccc3s2)CC1             Mid
 6  COc1ccc(CC(=O)N2CC(=O)Nc3ccc(Br)cc3C2c2ccc(F)cc2)cc1 (stereo unspecified)             Mid
 7  COc1ccccc1N1CCN(c2nc3ccc(C)cc3n3nnnc23)CC1            High
 8  CCOc1ccc(-n2c(C)nc3cc(C(=O)NC4CCCC4)ccc32)cc1             Mid
 9        COc1ccccc1CNc1nc2ccc(C)cc2n2nnnc12             Low
10  CCOCCCn1c(SCC(=O)Nc2ccc(C)cc2)nc2ccccc2c1=O            High

----------
# Lookup of reported survival keyed by entry
System: Wild type
assay_notes: S. aureus survival, RN4220 and DeltatarO strains – OD600, teichoic acid synthesis inhibitors, primary screen (AID 463173)
test_conditions: S. aureus RN4220 wild type/DeltatarO growth, OD600, 18 h, hits give low values, screened at 18.75 µg/mL (by protocol)
Screen size: about 52,000 compounds; about 1,700 (3.3%) were called active. Shown is part of a subset that was picked to be rich in actives.
measured_attribute: survival

> print(dat)
                                    compound  measured.attribute  endpoint.result
 1  COc1cccc2cc(-c3nc(Nc4cccc(C)c4C)sc3C)c(=O)oc12            survival   65% (inactive)
 2  CCOc1ccc(-c2cn3c(n2)sc2cc(C(=O)NCCCN(CC)CC)ccc23)cc1            survival      2% (active)
 3  COc1cc(C2Nc3c(C)cc(C)cc3-c3cc(C)nn32)cc(OC)c1O (stereo unspecified)            survival   97% (inactive)
 4  CCOc1cc(Cl)c(S(=O)(=O)n2cc(C)nc2CC)cc1Cl            survival     -7% (active)
 5       CCOc1cc(Cl)c(S(=O)(=O)n2ccnc2)cc1Cl            survival   74% (inactive)
 6  Fc1cccc(-c2nnn3c2nc(NC2CCCCC2)c2ccccc23)c1            survival   85% (inactive)
 7                Cc1cccc(OC(=O)c2snnc2C)c1C            survival   80% (inactive)
 8  Cc1ccc(-c2nnn3c2nc(NC2CCC(C)CC2)c2ccccc23)cc1 (stereo unspecified)            survival      4% (active)
 9  CCOC(=O)c1cc(S(=O)(=O)N2CCN(c3ccccc3F)CC2)[nH]n1            survival     -6% (active)
10  CCCSCCCNC(=O)c1ccc2c(c1)sc1nc(-c3ccc(OCC)cc3)cn12            survival   85% (inactive)
11  COc1ccc(Br)cc1C1Sc2ccccc2NC2=C1C(=O)c1ccccc12 (stereo unspecified)            survival   41% (inactive)
12  CCOC(=O)c1cnc(N2CCN(c3cccc(C)c3C)CC2)c2ccccc12            survival   85% (inactive)
13  CCOc1ccc(-c2cn3c(n2)sc2cc(C(=O)NCCCc4ccccc4)ccc23)cc1            survival   96% (inactive)
14  CCN(CC)CCCNC(=O)c1ccc2c(c1)sc1nc(-c3ccc(C)cc3)cn12            survival      8% (active)
15  CC(C)CN(CCNC(=O)c1cn(C)c2ccc(S(=O)(=O)N3CCOCC3)cc2c1=O)CC(C)C            survival   82% (inactive)
16  CCOC(=O)c1cnc2c(OC)cccc2c1N1CCN(c2ccccc2F)CC1            survival    -14% (active)
17  CCCNC(=O)c1ccc2c(c1)sc1nc(-c3ccc(C)cc3)cn12            survival  103% (inactive)
18  COc1ccc(/C=C\c2onc(C)c2S(=O)(=O)N2CCC(C(=O)Nc3ccc(C)c(F)c3)CC2)cc1            survival   93% (inactive)
19  FC(F)(F)c1cccc(-c2nnn3c2nc(NC2CCCCC2)c2ccccc23)c1            survival   28% (inactive)
20  COc1ccc(OC)c(C2Nc3c(C)cc(C)cc3-c3cc(C)nn32)c1 (stereo unspecified)            survival    -14% (active)
21  CCOC(=O)c1cnc(N2CCN(c3ccc(C)cc3C)CC2)c2ccccc12            survival  112% (inactive)

----------
System: Wild type
assay_notes: S. aureus survival, RN4220 and DeltatarO strains – OD600, teichoic acid synthesis inhibitors, primary screen (AID 463173)
test_conditions: S. aureus RN4220 wild type/DeltatarO growth, OD600, 18 h, hits give low values, screened at 18.75 µg/mL (by protocol)
In all, about 52,000 compounds went through this assay and about 1,700 (3.3%) were called active. The entries come from a sample that favours actives as a whole.
measured_attribute: survival (%)

> print(dat)
                                    molecule  target.desc  endpoint.result
 1  CC(CC(=O)Nc1ccc(Br)cc1F)S(=O)(=O)c1ccc2c(c1)NC(=O)CO2 (stereo not given)    Wild type               63
 2      Cc1ccc(NC(=O)Cn2cc(C#N)c3ccccc32)cc1    Wild type              113
 3  COc1ccc(-c2cn3c(n2)sc2cc(C(=O)NCCCN4CCCCCC4)ccc23)cc1    Wild type               66
 4  CCN1CCN(CCCNC(=O)c2ccc3c(c2)sc2nc(-c4ccc(C)cc4)cn23)CC1    Wild type               29
 5  CC1CCCCN1CCCNC(=O)c1ccc2c(c1)sc1nc(-c3ccc(F)cc3)cn12 (stereo not given)    Wild type               26
 6  CCc1ccccc1NC(=O)Nc1cc(C(=O)NCc2ccc(OC)cc2)ccc1N1CCCC1    Wild type              128
 7         COc1ccc(NC(=O)c2noc3c2CCCC3)cc1Cl    Wild type               82
 8  CCN1C(=O)c2ccccc2S(=O)(=O)c2ccc(C(=O)NCc3ccc(OC)cc3)cc21    Wild type               97
 9  CCC1CCCCN1CCCNC(=O)c1ccc2c(c1)sc1nc(-c3ccc(F)cc3)cn12 (stereo not given)    Wild type                6
10  CN(C)c1ccc(-c2nnc3n(Cc4ccccc4)c(=O)c4ccccc4n23)cc1    Wild type               83
11  Cc1ccc(NC(=O)c2nc(S(=O)(=O)Cc3cccc(C)c3)ncc2Cl)cc1    Wild type               -1
12  Cc1ccc(CS(=O)(=O)c2ncc(Cl)c(C(=O)Nc3nc4ccc(F)cc4s3)n2)cc1    Wild type               20
13  CCC(C(=O)NCc1cc(OC)ccc1OC)n1nc(C)c2sc3ccccc3c2c1=O (stereo not given)    Wild type               87
14  COC(=O)c1ccccc1NC(=O)c1cc(-c2ccc(Cl)cc2)on1    Wild type               71
15  CCc1nn2c(=O)cc(COC(=O)c3cccc(NC(=O)CCc4ccccc4)c3)nc2s1    Wild type               72
16     CCOC(=O)c1cccc(NC(=O)c2ccc3snnc3c2)c1    Wild type               84
17  Cc1cccc(N2CCN(C(=O)c3noc4c3COc3ccc(C)cc3-4)CC2C)c1 (stereo not given)    Wild type               80
18  Cc1ccc(-c2cn3c(n2)sc2cc(C(=O)NCCCN4CCCCCC4)ccc23)cc1    Wild type               -1
19  O=C(NCCCN1CCCCC1)c1ccc2c(c1)sc1nc(-c3ccc(F)cc3)cn12    Wild type               43
20  Cc1ccc(CN2CCC(CNC(=O)c3cnn(-c4ccccc4)c3C3CCN(C(=O)OC(C)(C)C)CC3)CC2)cc1    Wild type               73
